- RUN_DESCRIPTION: Pharmacokinetic test in rats (relative bioavailability after gavage)
- Assay type: in vivo
- MEASUREMENT_CONTEXT: SD, rat, plasma, po, 20 mg/kg, intragastric 20 mg/kg in gavage capsules, mean of 4 rats
QUANTITY_MEASURED: half-life (h)
The reply should contain only the number, in h.

Input line: Request the reported half-life associated with COc1cc2c(Oc3ccc(NC(=O)C4(C(=O)Nc5ccc(F)cc5)CC4)cc3F)ccnc2cc1OCC1(NC2CCCC2)CC1 [Example 1]
Output line: 4.93

---

- RUN_DESCRIPTION: Pharmacokinetic test in rats (relative bioavailability after gavage)
- Type: in vivo
- MEASUREMENT_CONTEXT: SD, rat, plasma, po, 20 mg/kg, intragastric 20 mg/kg in gavage capsules, plasma, mean of 4 rats, read-out: MRT(0-t)
QUANTITY_MEASURED: MRT last
Number first, unit second.

Input line: Request the reported MRT last associated with COc1cc2c(Oc3ccc(NC(=O)C4(C(=O)Nc5ccc(F)cc5)CC4)cc3F)ccnc2cc1OCC1(NC2CCCC2)CC1 [Example 1]
Output line: 8.51 h

---

- RUN_DESCRIPTION: Pharmacokinetic test in rats (relative bioavailability after gavage)
- Format: in vivo
- MEASUREMENT_CONTEXT: SD, rat, plasma, po, 20 mg/kg, intragastric 20 mg/kg in gavage capsules, mean of 4 rats
QUANTITY_MEASURED: AUC(0-t) (ng·h/mL)
The reply should contain only the number, in ng·h/mL.

Input line: Request the reported AUC(0-t) associated with COc1cc2c(Oc3ccc(NC(=O)C4(C(=O)Nc5ccc(F)cc5)CC4)cc3F)ccnc2cc1OCC1(NC2CCCC2)CC1
Output line: 4700

---

- RUN_DESCRIPTION: Pharmacokinetic test in rats (relative bioavailability after gavage)
- Assay type: in vivo
- MEASUREMENT_CONTEXT: SD, rat, plasma, po, 20 mg/kg, intragastric 20 mg/kg in gavage capsules, plasma, mean of 4 rats, read-out: Tmax
QUANTITY_MEASURED: Tmax

Input line: Request the reported Tmax associated with COc1cc2c(Oc3ccc(NC(=O)C4(C(=O)Nc5ccc(F)cc5)CC4)cc3F)ccnc2cc1OCC1(NC2CCCC2)CC1
Output line: 6 h

---

- RUN_DESCRIPTION: Pharmacokinetic test in rats (relative bioavailability after gavage)
- Format: in vivo
- MEASUREMENT_CONTEXT: SD, rat, plasma, po, 20 mg/kg, intragastric 20 mg/kg in gavage capsules, mean of 4 rats
QUANTITY_MEASURED: AUC(0-inf) (ng·h/mL)
The reply should contain only the number, in ng·h/mL.

Input line: Request the reported AUC(0-inf) associated with COc1cc2c(Oc3ccc(NC(=O)C4(C(=O)Nc5ccc(F)cc5)CC4)cc3F)ccnc2cc1OCC1(NC2CCCC2)CC1 [Example 1]
Output line: 4960
